The origin of these recorded values is PubChem BioAssay AID1963972.

Test system: 945468-187-T-J2-PDC spheroids viability
Assay summary: Anticancer human tumor 945468-187-T-J2-PDC patient-derived rectal carcinoma cell line growth inhibition [PI3K]
Condition details: second compound 1 µM; first compound 0.316 µM; hits give low values; spheroids with HUVEC and MSC
Endpoint label: viability, T/C (%)
Supply the numeric figure in %, leaving out any unit text.

Recorded viability, T/C (compound C[C@@H](NC(=O)c1ncnc(N)c1Cl)c1ncc(C(=O)Nc2cc(C(F)(F)F)c(Cl)cn2)s1 + CC(Nc1ncnc2nc[nH]c12)c1cc2cccc(Cl)c2c(=O)n1-c1ccccc1 ): 81.3

Recorded viability, T/C (compound CCCS(=O)(=O)Nc1ccc(F)c(C(=O)c2c[nH]c3ncc(-c4ccc(Cl)cc4)cc23)c1F + CC(Nc1ncnc2nc[nH]c12)c1cc2cccc(Cl)c2c(=O)n1-c1ccccc1 ): 93

Recorded viability, T/C (compound CCN1CCN(Cc2ccc(Nc3ncc(F)c(-c4cc(F)c5nc(C)n(C(C)C)c5c4)n3)nc2)CC1 + Cc1nc(NC(=O)N2CCCC2C(N)=O)sc1-c1ccnc(C(C)(C)C(F)(F)F)c1 ): 96.8

Recorded viability, T/C (compound CC(C)NCC(C(=O)N1CCN(c2ncnc3c2C(C)CC3O)CC1)c1ccc(Cl)cc1 (stereo unspecified) + CC(Nc1ccc2c(c1)OCCn1cc(N3C(=O)OCC3C(F)F)nc1-2)C(N)=O ): 75.6

Recorded viability, T/C (compound CCCS(=O)(=O)Nc1ccc(F)c(C(=O)c2c[nH]c3ncc(-c4ccc(Cl)cc4)cc23)c1F + Cc1nc(NC(=O)N2CCCC2C(N)=O)sc1-c1ccnc(C(C)(C)C(F)(F)F)c1 ): 71.3

Recorded viability, T/C (compound CCCS(=O)(=O)Nc1ccc(F)c(C(=O)c2c[nH]c3ncc(-c4ccc(Cl)cc4)cc23)c1F + COc1c(OCCCN2CCOCC2)ccc2c3n(c(=NC(=O)c4cnc(N)nc4)nc12)CCN3 ): 21.9

Recorded viability, T/C (compound CC1(C)CCC(Nc2ncc(C(F)(F)F)c(-c3c[nH]c4c(P(C)(C)=O)c(C#N)ccc34)n2)CN1 (stereo unspecified) + CC(Nc1ccc2c(c1)OCCn1cc(N3C(=O)OCC3C(F)F)nc1-2)C(N)=O ): 67.3

Recorded viability, T/C (compound CCN1CCN(Cc2ccc(Nc3ncc(F)c(-c4cc(F)c5nc(C)n(C(C)C)c5c4)n3)nc2)CC1 + COc1c(OCCCN2CCOCC2)ccc2c3n(c(=NC(=O)c4cnc(N)nc4)nc12)CCN3 ): 14.3

Recorded viability, T/C (compound CNC(=O)c1ccc(N2C(=S)N(c3ccc(C#N)c(C(F)(F)F)c3)C(=O)C2(C)C)cc1F + CC(Nc1ccc2c(c1)OCCn1cc(N3C(=O)OCC3C(F)F)nc1-2)C(N)=O ): 86.7

Recorded viability, T/C (compound CCN1CCN(Cc2ccc(Nc3ncc(F)c(-c4cc(F)c5nc(C)n(C(C)C)c5c4)n3)nc2)CC1 + CC(Nc1ncnc2nc[nH]c12)c1cc2cccc(Cl)c2c(=O)n1-c1ccccc1 ): 88.7

Recorded viability, T/C (compound CNC(=O)c1ccc(N2C(=S)N(c3ccc(C#N)c(C(F)(F)F)c3)C(=O)C2(C)C)cc1F + COc1c(OCCCN2CCOCC2)ccc2c3n(c(=NC(=O)c4cnc(N)nc4)nc12)CCN3 ): 17.2

* * *

Tested on: 945468-187-T-J2-PDC spheroids viability
Assay summary: Anticancer human tumor 945468-187-T-J2-PDC cell line growth inhibition [PI3K];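 also: spheroids exposed to compounds for seven days before reading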
Condition details: second compound 10 µM; first compound 0.01 µM; hits give low values; spheroids with HUVEC and MSC
Provide the recorded viability, T/C for the entries that follow.

Recorded viability, T/C (molecule Cn1ncnc1[C@H]1c2n[nH]c(=O)c3cc(F)cc(c23)N[C@@H]1c1ccc(F)cc1 + Cc1nc(NC(=O)N2CCCC2C(N)=O)sc1-c1ccnc(C(C)(C)C(F)(F)F)c1 ): 77.8%

Recorded viability, T/C (molecule CCN1CCN(Cc2ccc(Nc3ncc(F)c(-c4cc(F)c5nc(C)n(C(C)C)c5c4)n3)nc2)CC1 + CC(Nc1ncnc2nc[nH]c12)c1cc2cccc(Cl)c2c(=O)n1-c1ccccc1 ): 76.4%

Recorded viability, T/C (molecule CC(=O)c1c(C)c2cnc(Nc3ccc(N4CCNCC4)cn3)nc2n(C2CCCC2)c1=O + CC(Nc1ncnc2nc[nH]c12)c1cc2cccc(Cl)c2c(=O)n1-c1ccccc1 ): 87.9%

* * *

Test system: 945468-187-T-J2-PDC spheroids viability
Assay summary: Anticancer human tumor 945468-187-T-J2-PDC cell line growth inhibition [PI3K];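 also: spheroids exposed to compounds for seven days before reading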
Condition details: second compound 0.1 µM; first compound 1 µM; hits give low values; spheroids with HUVEC and MSC
Text: Combinatorial screen of targeted agents with the PI3K inhibitors inavolisib, alpelisib, duvelisib, and copanlisib in multi-cell type tumor spheroids A high-throughput screen of multi-cell type tumor spheroids was designed to identify active combinations of targeted small molecules and PI3K pathway inhibitors. […] Compounds. […] If the clinical Cmax for an agent had not been determined, the highest concentration tested was 10 microM. […]
Endpoint label: viability, T/C (%)
Supply the numeric figure in %, leaving out any unit text.

Recorded viability, T/C (molecule CCCS(=O)(=O)Nc1ccc(F)c(C(=O)c2c[nH]c3ncc(-c4ccc(Cl)cc4)cc23)c1F + Cc1nc(NC(=O)N2CCCC2C(N)=O)sc1-c1ccnc(C(C)(C)C(F)(F)F)c1 ): 108

Recorded viability, T/C (molecule CNC(=O)c1ccc(N2C(=S)N(c3ccc(C#N)c(C(F)(F)F)c3)C(=O)C2(C)C)cc1F + CC(Nc1ncnc2nc[nH]c12)c1cc2cccc(Cl)c2c(=O)n1-c1ccccc1 ): 91

Recorded viability, T/C (molecule CC(C)NCC(C(=O)N1CCN(c2ncnc3c2C(C)CC3O)CC1)c1ccc(Cl)cc1 (stereo not given) + COc1c(OCCCN2CCOCC2)ccc2c3n(c(=NC(=O)c4cnc(N)nc4)nc12)CCN3 ): 80.5

Recorded viability, T/C (molecule CCCS(=O)(=O)Nc1ccc(F)c(C(=O)c2c[nH]c3ncc(-c4ccc(Cl)cc4)cc23)c1F + CC(Nc1ccc2c(c1)OCCn1cc(N3C(=O)OCC3C(F)F)nc1-2)C(N)=O ): 92.8

Recorded viability, T/C (molecule C#Cc1c(F)ccc2cc(O)cc(-c3ncc4c(N5CC6CCC(C5)N6)nc(OCC56CCCN5CC(F)C6)nc4c3F)c12 (stereo not given) + Cc1nc(NC(=O)N2CCCC2C(N)=O)sc1-c1ccnc(C(C)(C)C(F)(F)F)c1 ): 107

* * *

Tested on: 945468-187-T-J2-PDC spheroids viability
Assay summary: Anticancer human tumor 945468-187-T-J2-PDC cell line growth inhibition [PI3K];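 also: spheroids exposed to compounds for seven days before reading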
Condition details: second compound 10 µM; first compound 0.01 µM; hits give low values; spheroids with HUVEC and MSC
Endpoint label: viability, T/C (%)
Supply the numeric figure in %, leaving out any unit text.

Recorded viability, T/C (compound CC(C)n1nc(-c2ccc3oc(N)nc3c2)c2c(N)ncnc21 + CC(Nc1ncnc2nc[nH]c12)c1cc2cccc(Cl)c2c(=O)n1-c1ccccc1 ): 88.4

Recorded viability, T/C (compound Cn1ncnc1[C@H]1c2n[nH]c(=O)c3cc(F)cc(c23)N[C@@H]1c1ccc(F)cc1 + CC(Nc1ncnc2nc[nH]c12)c1cc2cccc(Cl)c2c(=O)n1-c1ccccc1 ): 105

Recorded viability, T/C (compound CC(C)n1nc(-c2ccc3oc(N)nc3c2)c2c(N)ncnc21 + Cc1nc(NC(=O)N2CCCC2C(N)=O)sc1-c1ccnc(C(C)(C)C(F)(F)F)c1 ): 58.7

Recorded viability, T/C (compound CC(=O)c1c(C)c2cnc(Nc3ccc(N4CCNCC4)cn3)nc2n(C2CCCC2)c1=O + Cc1nc(NC(=O)N2CCCC2C(N)=O)sc1-c1ccnc(C(C)(C)C(F)(F)F)c1 ): 64.5

Recorded viability, T/C (compound CCN1CCN(Cc2ccc(Nc3ncc(F)c(-c4cc(F)c5nc(C)n(C(C)C)c5c4)n3)nc2)CC1 + Cc1nc(NC(=O)N2CCCC2C(N)=O)sc1-c1ccnc(C(C)(C)C(F)(F)F)c1 ): 84.4

* * *

Tested on: 945468-187-T-J2-PDC spheroids viability
Assay summary: Anticancer human tumor 945468-187-T-J2-PDC cell line growth inhibition [PI3K];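 also: spheroids exposed to compounds for seven days before reading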
Condition details: second compound 0.0316 µM; first compound 1 µM; hits give low values; spheroids with HUVEC and MSC
Provide the recorded viability, T/C for the entries that follow.
Supply the numeric figure in %, leaving out any unit text.

Recorded viability, T/C (molecule Cn1ncc(Cl)c1-c1cc(C(=O)NC(CN)Cc2cccc(F)c2)sc1Cl (stereo not given) + Cc1nc(NC(=O)N2CCCC2C(N)=O)sc1-c1ccnc(C(C)(C)C(F)(F)F)c1 ): 77.9

Recorded viability, T/C (molecule CNC(=O)c1ccc(N2C(=S)N(c3ccc(C#N)c(C(F)(F)F)c3)C(=O)C2(C)C)cc1F + Cc1nc(NC(=O)N2CCCC2C(N)=O)sc1-c1ccnc(C(C)(C)C(F)(F)F)c1 ): 106

Recorded viability, T/C (molecule CCN1CCN(Cc2ccc(Nc3ncc(F)c(-c4cc(F)c5nc(C)n(C(C)C)c5c4)n3)nc2)CC1 + Cc1nc(NC(=O)N2CCCC2C(N)=O)sc1-c1ccnc(C(C)(C)C(F)(F)F)c1 ): 105

Recorded viability, T/C (molecule C[C@@H](NC(=O)c1ncnc(N)c1Cl)c1ncc(C(=O)Nc2cc(C(F)(F)F)c(Cl)cn2)s1 + CC(Nc1ncnc2nc[nH]c12)c1cc2cccc(Cl)c2c(=O)n1-c1ccccc1 ): 106

Recorded viability, T/C (molecule CC(Cn1ccc(-c2ccc(C#N)c(Cl)c2)n1)NC(=O)c1cc(C(C)O)[nH]n1 (stereo not given) + CC(Nc1ccc2c(c1)OCCn1cc(N3C(=O)OCC3C(F)F)nc1-2)C(N)=O ): 92
